methodSummary: Blank reactions without phosphatase: acid-catalyzed release of L-ascorbate in pH 5.0 acetate buffer
Format: physicochemical
assayConditions: 0.05 m acetate buffer, pH 5, Table II, reaction time 2.0 h, blank without phosphatase (wheat flour), 25°, read-out: L-Ascorbate Released (%), Blank
measuredMetric: degraded at 2 h (%)

INSERT INTO assay_data (compound, obsvalue) VALUES
  ('O=C1O[C@H]([C@@H](O)CO)C(O)=C1OP(=O)(O)O [ASMP, L-Ascorbate 2-phosphate]', 2.9),
  ('O=C1O[C@H]([C@@H](O)CO)C(O)=C1OP(=O)(O)OP(=O)(O)OP(=O)(O)O [ASTP, L-ascorbate 2-triphosphate]', 0);
